Quick list: melting point per entry.

Please review the following examples before continuing.
* CCOC(=O)C(=Cc1c(C)cc(C)cc1C)C(=O)CCl | 85 °C
* CC1CN(c2nnc(N3CC(C)OC(C)C3)c3cc(-c4ccccc4)ncc23)CC(C)O1 (stereo unspecified) | 248 to 250 °C
* COc1ccnc(Cl)c1N | 86 to 87 °C
* CCOc1c(C(=O)NC2CN3CCC2CC3)cc(Cl)c2c1CCCN2 (stereo unspecified) | 160 °C
* CCOC(=O)Nn1cccc1C(=O)c1ccc(Cl)cc1Cl | 114 to 116 °C

Item "Nc1cc(C(F)(F)F)on1" has what recorded melting point?
44 to 45 °C

Which melting point value belongs to "Cc1nc(-c2ccc(O)cc2)oc1C" ?
202 to 203 °C

Using the record for "CCCCCCCCCCCCCCOc1ccc(C(=O)Nc2ccccc2)cc1" , report its melting point.
124 to 126 °C

---

melting point for assorted molecules

* COC(=O)CCCCc1cc2cc(C(F)(F)F)ccc2n1S(=O)(=O)c1cccc(C(C)(C)C)c1 | 77 °C
* C[C@]1(COC(=O)N2CCC(Oc3ccc(C(F)(F)F)cc3)CC2)Cn2cc([N+](=O)[O-])nc2O1 | 165 to 166 °C
* CCCCn1ncc(/C=C(\Cc2cc3c(cc2OC)CCO3)C(=O)OCC)c1-c1ccc(Cl)cc1O | 158 to 160 °C

Now look at this entry.
Any idea what its melting point is? The molecule is "O=[N+]([O-])c1cc(C(F)(F)C(F)(F)C(F)(F)/C=C/C(F)(F)C(F)(F)C(F)(F)c2ccc(O)c([N+](=O)[O-])c2)ccc1O"
122 to 123 °C

---

measured-quantity: melting point

- CC(Oc1ccc(O)cc1)C(=O)Nc1ccc(OC(F)(F)F)cc1 (stereo not drawn): 74.5 to 75 °C

State the recorded melting point for this entry: "COc1ccc(OCc2ccccc2)c(C(=O)OCc2ccccc2)c1"
93 to 94.5 °C

Endpoint output: melting point of C(#Cc1ccc(C=CC2=CC(c3ccc(C#Cc4ccccc4)cc3)N(c3ccccc3)N2)cc1)c1ccccc1 (stereo not drawn) . Value?
212 to 214 °C

melting point for "CN(CCOc1ccc(Cn2cc(CCC(=O)O)c(-c3ccccc3)c2)cc1)c1ccccn1" ?
110 to 111 °C

Recorded melting point for "Cc1ccc(-c2cc3c(s2)CCCC(C(=O)O)=C3)cc1" , please?
250 to 251 °C

Consider the molecule shown here: CCn1cc(CN(C(=O)C2CCCc3ccccc32)c2ccc(C(C)C)cc2)cn1 (stereo not drawn) What is its recorded melting point?
75 to 76 °C

Entry "Cc1cc(NC(=O)CCC(=O)O)ccc1-n1c(C)nc2ccccc2c1=O" : reported melting point = ?
228 to 230 °C

---

Catalogue of molecules with associated melting point

Solved cases (4 shown):
• COc1ccc(N2CCN(c3ccc(NC(=O)Oc4ccccc4)nc3)CC2)cc1 = 130 to 132 °C
• COc1cc(C)nc(NC(=O)NS(=O)(=O)c2ccccc2N)n1 = 210 to 215 °C
• COc1ccc(C(=O)Nc2ccccc2)cc1NS(=O)(=O)c1cc(Cl)sc1Cl = 189 to 190 °C
• NC(=O)c1nnn(Cc2ccccc2)c1NC(=O)c1ccccc1 = 191 to 192 °C

Name the reported melting point value associated with the molecule "Cn1c(=O)c2c(N3CCCCC3)cccc2n2cnc(-c3noc(C4CC4)n3)c12"
185 to 192 °C

Give the measured melting point of "ClCc1cn2cc(Br)ccc2n1" .
125 to 126 °C

Fill in: melting point of CC1CCn2c(nc(-c3ccncn3)cc2=O)N1 (configuration not stated) is ___
199 to 201 °C

---

measured-quantity: melting point

Completed entries (count: 3):
- CC(C)(C)C1(Cl)Cc2cc(OCC(=O)O)c(Cl)c(Cl)c2C1=O (centres undefined): 184 to 186 °C
- COC(=O)Cc1n[nH]c(C)c1[N+](=O)[O-]: 132 to 133 °C
- O=C1NC2CCC1NC2=O: 275 to 277 °C

Which value of melting point has been reported for N#CN1CCSC1=NC1CCc2ccccc21 (centres undefined) in the records?
90 to 91 °C

Value lookup for melting point; key = "FC(F)(F)c1cccc(Oc2ccnc(-n3ccc(C(F)(F)F)n3)n2)c1"
72 to 73 °C

Tell me the measured melting point of CC(C)OC(=O)NC(C(=O)N1CCCC1C(=O)O)C(C)(C)SC(C)C (centres undefined) , please.
128 to 130 °C

Returns the measured melting point for the input compound. Input: "CCOC(=O)CC1(NC(C)=O)Cc2ccccc2C1"
72 to 73 °C

Fill in the blank: the reported melting point of "COc1ccc(-n2c(CC(=O)O)c(C(=O)O)c3cc(Oc4ccc(C(F)(F)F)cc4)ccc32)cc1" is ____.
248 to 250 °C

---

Listed molecules paired with reported melting point

Answered examples (6):
- Fc1ccc(-c2cn(C3CCCN4CCCCC34)nn2)cc1 (stereo unspecified): 142 °C
- CCCCc1cc2c(=O)n3cc(C(=O)OC)ccc3nc2s1: 137 to 138 °C
- Oc1ccc2c(c1)CCCC(c1ccccc1)=C2c1ccc(OCCCCCCl)cc1: 200 to 202 °C
- COc1cc(N2CCN(Cc3ccccc3)CC2)c2ncccc2c1Cl: 138 to 140 °C
- COc1ccccc1NC(=O)c1ccc(CO)cc1: 104 to 106 °C
- Cc1ccc2c(=O)[nH]c(N3CCN(CCO)CC3)cc2c1: 236 to 237 °C

I am curious: what melting point value has been reported for CC(C)(C)C(=O)NCCC(=O)NC1CCCCC1Nc1cccc2c1C(=O)c1ccccc1C2=O (stereo unspecified) ?
168 °C

For "Cc1nc2cc(C(=O)NC(C)C)c(NC(=O)c3cc(C(F)(F)F)nn3-c3ncccc3Cl)c(Cl)c2nc1C" , what is its reported melting point?
243 to 244 °C

Report melting point for "O=c1c(Br)c[nH]c2c([N+](=O)[O-])cccc12" please.
279 to 282 °C

For the molecule shown here, "CCOC(=O)CCCc1oc(=O)[nH]c1-c1ccc(Cl)s1" , give the reported melting point.
95 to 96 °C

Can you share its melting point? I mean this molecule: CCC(COC(=O)c1ccc(N)c(Cl)c1OC)(c1cccs1)N(C)C (stereo unspecified)
110 to 112 °C

---

The following compounds are shown together with reported melting point values.
Quick reminder: number only, in °C, skip the unit.

- C=COC(=O)n1c(S(=O)Cc2ccc(C)cn2)nc2cscc21 (stereo not drawn): 162
- CC(C)(C)OC(=O)CCP(Br)(c1ccccc1)(c1ccccc1)c1ccccc1: 190
- Cc1ccc(-c2cc3c4cc(C)ccc4n(C)c3n(C)c2=O)c(C)c1: 150

Please find the next compound below.
Sample "Cc1ccc(S(=O)(=O)Nc2ccc(N)c([N+](=O)[O-])c2)cc1" — what was its melting point?
146

---

Reported melting point values are given for each entry in this list.

• COc1ccc(C=CC(=O)C2C(=O)CCC2=O)cc1O = 61 to 62 °C
• CC(C(=O)O)c1ccc2oc3ncccc3c(=O)c2c1 (stereo not given) = 194 to 195 °C
• CC(Oc1ccc(Oc2cnc3cc(F)ccc3n2)cc1)C(=O)Nc1ccc(OC(F)(F)F)cc1 (stereo not given) = 140 to 142 °C
• CCC(C(=O)N(C)C)n1ccc(-c2ccccc2)n1 (stereo not given) = 101 to 103 °C

# evaluate next
I would be grateful if you could share the reported melting point for O=Cc1cn(C2CCc3ccccc3C2)c(=S)[nH]1 (stereo not given) .
206 to 210 °C

---

Overview of reported melting point across a group of compounds:

Illustrative cases are given below, each with its answer.
- Nc1c(Nc2cccc(-c3ccncc3)n2)c(=O)c1=O: > 340 °C
- c1ccc(COc2ccc(Cn3cnc4c(-c5ccco5)ncnc43)cc2)cc1: 145 to 146 °C
- COc1ccc(CC(=NNS(=O)(=O)c2ccc(C)cc2)c2cc(OC)cc(OC)c2)cc1: 120 to 121 °C

Okay, next one:
Dear colleague, I am looking for the recorded melting point of the following compound: COc1ccc(C(=O)C2CCC(C)(C(=O)O)C2(C)C)cc1 (centres undefined)
165 to 166 °C

---

measured-quantity: melting point

Please review the following examples before continuing.
- CSC[C@H]1NC(=O)[C@@H](Cc2ccccc2)NC1=O: 246 to 247 °C
- N#Cc1cc(-c2ccoc2)c2ccc(COc3cc(F)cc(-c4cccs4)c3)cc2n1: 181 to 183 °C
- COC(=O)CS(=O)(=O)CCCCCn1nc(-c2ccccc2)c(-c2ccccc2)c1-c1ccccc1: 102 °C
- C[C@@H]1[C@H](O[Si](C)(C)C(C)(C)C)[C@@H](C)C(S(=O)(=O)c2ccccc2)=C[C@H]1O: 107 to 108 °C
- Cn1c(Oc2ccc(Cl)c(F)c2)nc2c(-c3cccc(C(=O)O)c3)cccc21: 283 to 284 °C

Form field: reported melting point of "C#Cc1ccc2c(c1)C(c1ccccc1F)=NCc1c(C(=O)NC)ncn1-2"
235 to 236 °C

For the compound shown here, "CCN(C)C(=O)c1cnn(C)c1C(=O)Nc1ccn2nc(N3CCOCC3)nc2c1" , give the reported melting point.
201 to 203 °C
